system_tested: Beta-2 adrenergic receptor (Homo sapiens)
procedure_text: Adrenergic beta2 receptor (ADRB2) small molecule antagonists, cell-based qHTS assay (AID 1963592); note: nearly all actives have a fitted effect of over 50% in size
study_conditions: CHO-ADRB2 cells, isoproterenol-stimulated cAMP HTRF ratio, 0.5 h; series mostly up to 92.4 µM
Results filed as inconclusive are left out. Activity calls are given as the source filed them. Calls come from the whole dose curve.
Select the matching outcome among 1 for active, 0 for inactive

| compound | system_tested | cat |
| --- | --- | --- |
| CC(CC(C#N)(c1ccccc1)c1ccccc1)N(C)C (configuration not stated) | Beta-2 adrenergic receptor (Homo sapiens) | 0 |
| C=CCN1CC[C@]23c4c5ccc(O)c4O[C@H]2C(=O)CC[C@@]3(O)[C@H]1C5 | Beta-2 adrenergic receptor (Homo sapiens) | 0 |
| c1ccc2c(c1)cc1ccc3cccc4ccc2c1c34 | Beta-2 adrenergic receptor (Homo sapiens) | 0 |
| O=C(Nc1ccc2[nH]ccc2c1)c1cc2cc(F)ccc2n1Cc1cccc(F)c1 | Beta-2 adrenergic receptor (Homo sapiens) | 0 |
| CCC[CH2][Sn]([CH2]CCC)([CH2]CCC)[CH2]CCC | Beta-2 adrenergic receptor (Homo sapiens) | 1 |
| Nc1ccccc1-c1ccccc1 | Beta-2 adrenergic receptor (Homo sapiens) | 0 |

Consider now this further compound.
Asked: What did the test return for CCN(CC)C(C)C(=O)c1ccccc1 (configuration not stated) ?
Given back: 0

---

system_tested: Beta-2 adrenergic receptor (Homo sapiens) (UniProt P07550)
Sequence (P07550 whole entry, looked up): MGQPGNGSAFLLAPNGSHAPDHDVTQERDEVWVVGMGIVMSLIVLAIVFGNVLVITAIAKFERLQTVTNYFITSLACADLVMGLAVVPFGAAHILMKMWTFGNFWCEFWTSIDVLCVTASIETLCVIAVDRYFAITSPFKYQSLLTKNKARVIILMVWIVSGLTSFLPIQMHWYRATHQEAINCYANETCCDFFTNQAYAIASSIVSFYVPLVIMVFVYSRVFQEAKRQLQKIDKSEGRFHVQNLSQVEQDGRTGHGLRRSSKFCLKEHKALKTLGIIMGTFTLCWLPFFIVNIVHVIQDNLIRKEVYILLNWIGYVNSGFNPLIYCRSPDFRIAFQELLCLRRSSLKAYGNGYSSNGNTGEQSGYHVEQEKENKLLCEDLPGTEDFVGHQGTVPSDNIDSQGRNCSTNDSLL
procedure_text: Adrenergic beta2 receptor (ADRB2) small molecule antagonists, cell-based qHTS assay (AID 1963592); note: nearly all actives have a fitted effect of over 50% in size
study_conditions: CHO-ADRB2 cells, isoproterenol-stimulated cAMP HTRF ratio, 0.5 h; series mostly up to 92.4 µM
Inconclusive results are not listed. Calls of active or inactive are those of the source. The call rests on the fitted dose curve.
Select the matching outcome among true (active), false (inactive)

| compound | cat |
| --- | --- |
| CCC(C)(c1ccc(O)cc1)c1ccc(O)cc1 | false |
| Oc1ccc(C2(c3ccc(O)cc3)c3ccccc3-c3ccccc32)cc1 | false |
| CCCCCCCCc1ccc(O)cc1 | false |

Asked: What did the test return for C[C@@H](N)[C@@H](O)c1ccccc1 ?
Given back: false

Asked: Query O=C(O)c1ccccc1C(=O)Nc1cccc2ccccc12 next
Given back: false

Asked: Query SCc1ccccc1 next
Given back: false

Asked: Query CN next
Given back: false

---

system_tested: D(2) dopamine receptor (Homo sapiens)
procedure_text: Dopamine D2 receptor (DRD2) small molecule agonists, cell-based qHTS assay (AID 1963594); note: nearly all actives have a fitted effect of over 35% in size
study_conditions: HEK293-DRD2 cAMP HTRF, agonist mode, 30 min; series mostly up to 92.4 µM
Protocol: National Center for Advancing Translational Sciences [NCATS] Division of Preclinical Innovation [DPI] U.S. Environmental Protection Agency [EPA] National Institutes of Environmental Health Sciences [NIEHS] National Toxicology Program [NTP] […] DRD2-Hek293 cells were dispensed at 600 cells/3uL/well in 1536-well white plates using a Multidrop Dispenser. […] The fluorescence intensity in the plates was measured at 340 nm excitation and 665 & 620 nm emission by an Envision plate reader.
Records with an inconclusive call do not appear. Calls of active or inactive are those of the source. Calls follow the shape of the full dose curve.
reported_metric: outcome

Examples with their reported outcome follow.
| molecule | system_tested | result |
| --- | --- | --- |
| CC(=O)c1cc2c(cc1C)C(C)(C)C(C)CC2(C)C (centres undefined) | D(2) dopamine receptor (Homo sapiens) | inactive |
| CC[C@]1(O)CC[C@H]2[C@@H]3CCC4=CCCC[C@@H]4[C@H]3CC[C@@]21C | D(2) dopamine receptor (Homo sapiens) | inactive |
| CCc1cccc(C)c1N(C(=O)CCl)[C@@H](C)COC | D(2) dopamine receptor (Homo sapiens) | inactive |
| O=CNC(N1CCN(C(NC=O)C(Cl)(Cl)Cl)CC1)C(Cl)(Cl)Cl (centres undefined) | D(2) dopamine receptor (Homo sapiens) | inactive |

Asked: API: value(readout= outcome, system= D(2) dopamine receptor (Homo sapiens), query= CCOP(=S)(OCC)SCCl )
Given back: inactive

Asked: Query O=C(O)[C@H](O)[C@@H](O)C(=O)O next
Given back: inactive

Asked: Query O=C(NC(=O)c1c(F)cccc1F)Nc1ccc(Oc2ccc(C(F)(F)F)cc2Cl)cc1F next
Given back: inactive

Asked: Query O=C(Cc1ccccc1)OCc1ccccc1 next
Given back: inactive

Asked: Query CCOP(O)OCC next
Given back: inactive

Asked: Query CC(c1ccc(O)cc1)(c1ccc(O)cc1)c1ccc(O)cc1 next
Given back: inactive

Asked: Query CCOP(=S)(OCC)SCSCC next
Given back: inactive

Asked: Query COC1=CC(=O)O[C@@H](/C=C/c2ccccc2)C1 next
Given back: inactive

Asked: Query N#Cc1c(-c2ccc(Cl)cc2)[nH]c(C(F)(F)F)c1Br next
Given back: inactive

Asked: Query CC(C)C(Br)C(=O)NC(N)=O (centres undefined) next
Given back: inactive
